System: thromboxane synthesis in human blood platelets
Assay: Inhibition of collagen-induced thromboxane synthesis in washed human blood platelets in vitro
Type: cell-based
Details: Platelet, collagen-induced (2 μg/ml)
Measured Parameter: IC50 (µM)
Form entry: value (µM) — number only.

Item CCOC(=O)[C@H](CSN=O)NC(C)=O has what recorded IC50?
0.5
